Ref: ChEMBL document CHEMBL1201862

System: HOP-62
Experiment: NCI tumour cell line growth inhibition, 48 h
Calls of active or inactive are those of the source. No stated cut-off is given here; in the data, active = GI50 up to about 1.1 µM and inactive = higher.
I'd appreciate it if you could supply GI50 values for the items below.

HOP-62 data for COc1c(O)c(O)cc2c1-c1ccc(OC)c(=O)cc1C(NC(C)=O)CC2 (configuration not stated) ; its GI50: 7.6 µM (inactive)

HOP-62 data for O=C1OC(c2ccc(Cl)c3ccccc23)c2ccccc21 (configuration not stated) ; its GI50: > 100 µM (inactive)

HOP-62 data for O=C(Cc1ccccc1)NNc1nc(NNC(=O)c2ccncc2)nc(Nc2ccc([N+](=O)[O-])cc2)n1 ; its GI50: > 10 µM (inactive)

HOP-62 data for C1=N\c2ccc(cc2)/N=C\c2ccc(cc2)OCc2cccc(n2)COc2ccc/1cc2 ; its GI50: > 100 µM (inactive)

HOP-62 data for C[N+](C)(N)Cc1nc(-c2ccc(Cl)cc2)no1 ; its GI50: 88.9 µM (inactive)

HOP-62 data for NNC(=O)c1c(Cl)c(Cl)c(Cl)c(Cl)c1-c1nc2ccccc2[nH]1 ; its GI50: 4.29 µM (inactive)

HOP-62 data for COC(=O)/C(=N\N)C(C(=O)C(=O)Nc1nnc(S)[nH]1)c1nc2ccc([N+](=O)[O-])cc2nc1O (configuration not stated) ; its GI50: > 100 µM (inactive)

HOP-62 data for CCOC(=O)C1=C(OC(OCC)C(C)[Se]c2ccccc2)CCC1 (configuration not stated) ; its GI50: 64.6 µM (inactive)

HOP-62 data for COc1ccc(-c2nc(O)c3ccccc3n2)cc1OC ; its GI50: 33.8 µM (inactive)

HOP-62 data for O=C(O)[C@@H]1C[C@@H](O)CN1C(=O)OCc1ccccc1 ; its GI50: > 100 µM (inactive)

HOP-62 data for CN1CCc2ccccc2C1Cc1ccccc1NC(=O)c1sc2ccccc2c1Cl (configuration not stated) ; its GI50: > 100 µM (inactive)

HOP-62 data for Cc1nc2ccccc2n1Cc1ccc(NC(=S)NC2CCCCC2)cc1 ; its GI50: > 75 µM (inactive)

HOP-62 data for COc1cc(-c2oc3c(OC)c(O)c(OC)c(O)c3c(=O)c2OC)ccc1O ; its GI50: 23.1 µM (inactive)

HOP-62 data for CCOC(=O)C1C(=O)c2cccc(OC)c2C2COC(=O)N12 (configuration not stated) ; its GI50: > 100 µM (inactive)

HOP-62 data for CCOC(=O)/C1=C(\C)N(Cc2ccccc2)C(=O)c2ccccc2C(=O)c2c(OC(C)=O)ccc(OC(C)=O)c21 ; its GI50: 40.6 µM (inactive)

HOP-62 data for CN(C)C(=O)C(F)(F)C(c1ccccc1)C1C(=O)N(C)C(=O)N(C)C1=O (configuration not stated) ; its GI50: > 100 µM (inactive)

HOP-62 data for C[C@H]1OC(=O)[C@@H]2N=NN(Cc3ccccc3)[C@H]12 ; its GI50: > 100 µM (inactive)

---

Tested on: NCI/ADR-RES
Assay: NCI tumour cell line growth inhibition, 48 h
The source made the active and inactive calls. Cut-off read from the data, not from the text of the source: active = GI50 up to about 1.1 µM and inactive = higher.
I'd appreciate it if you could supply GI50 values for the items below.

NCI/ADR-RES data for CN(C)/C=N/CCN1CCOCC1 ; its GI50: > 100 µM (inactive)

NCI/ADR-RES data for O=C(Nc1ccccc1)c1cc(S(=O)(=O)Nc2n[nH]c(=O)[nH]2)c(SSc2cc(Cl)c(C(=O)Nc3ccccc3)cc2S(=O)(=O)Nc2n[nH]c(=O)[nH]2)cc1Cl ; its GI50: > 100 µM (inactive)

NCI/ADR-RES data for N#CC(=C1CCCCC1)c1nc2ccccc2o1 ; its GI50: 40 µM (inactive)

---

I'd appreciate it if you could supply GI50 values for the items below.
System: KM12
Assay: NCI tumour cell line growth inhibition, 48 h
Active and inactive are the calls of the source. Cut-off read from the data, not from the text of the source: active = GI50 up to about 1.1 µM and inactive = higher.

The molecule Cc1ccc(C(=O)C(C)N)cc1C (centres undefined) showed GI50 equal to > 100 µM (inactive)

The molecule CC(=O)c1cc2ccccc2oc1=O showed GI50 equal to > 100 µM (inactive)

The molecule CCCCC/C=C1\CC(CO)(COC(=O)CC(C(C)C)C(C)C)OC1=O (centres undefined) showed GI50 equal to 11.4 µM (inactive)

The molecule Oc1ccc2ccccc2c1/N=N/c1ccc(Cl)cc1 showed GI50 equal to > 100 µM (inactive)

The molecule O=[N+]([O-])c1ccc(C2CC(c3ccccc3Cl)=Nc3ccccc3S2)cc1 (centres undefined) showed GI50 equal to 3.08 µM (inactive)

The molecule Cc1cn([C@@H]2O[C@H](CO[Si](C)(C)C(C)(C)C)[C@]3(O[C@H]3C(=O)NN)[C@H]2O[Si](C)(C)C(C)(C)C)c(=O)[nH]c1=O showed GI50 equal to 7.67 µM (inactive)

The molecule CCc1c[n+]([O-])c(C)cc1[N+](=O)[O-] showed GI50 equal to 45.4 µM (inactive)

The molecule N#CC(C#N)=C1c2ccccc2C(=NN)c2ccccc21 showed GI50 equal to > 100 µM (inactive)

The molecule CC(NC(=O)c1ccccc1)NC(=O)C(C)C(=O)Nc1ccccc1 (centres undefined) showed GI50 equal to > 100 µM (inactive)

---

Test system: SK-MEL-28
Assay: NCI tumour cell line growth inhibition, 48 h
The source made the active and inactive calls. Cut-off read from the data, not from the text of the source: active = GI50 up to about 1.1 µM and inactive = higher. Where a SMILES comes first, the peptide text is derived from it. Bridges are numbered along the chain shown (N, C = ends). [ ]: non-standard residue; d: D form. The star is where a group is joined. ξ: configuration not given here. PhAc = O=C(Cc1ccccc1)*; ξP = O=C(O)C1CCCN1
Answer with one of the outcomes given here: active, inactive

Ask: What outcome does the record of this test show for COC(=O)/C=C1\CCCN1CCc1cc2c(cc1CC#N)OCO2 ?
Result: inactive

Ask: What outcome does the record of this test show for CN1C(=O)C2(C=CC(O)CC2)c2ccccc21 (configuration not stated) ?
Result: inactive

Ask: What outcome does the record of this test show for NC(=O)N/N=C\c1ccccc1OCc1cccc(COc2ccccc2/C=N\NC(N)=O)n1 ?
Result: inactive

Ask: What outcome does the record of this test show for O=c1ss/c(=N\c2ccccc2)n1-c1ccccc1 ?
Result: inactive

Ask: What outcome does the record of this test show for CCCc1nc(Cl)nc(Cl)c1Cl ?
Result: active

Ask: What outcome does the record of this test show for O=C(Cc1ccccc1)N[C@@H]1COC(=O)C2CCCN2C(=O)[C@@H]2CCCN2C1=O (some centres not stated) (PhAc-[dS]-Pro-[ξP]; ester 1-C) ?
Result: inactive

Ask: What outcome does the record of this test show for CC(C)N(C(C)C)P(OCCC#N)OC1CC(n2cnc3c(=O)[nH]cnc32)OC1COC(=O)NCCCCCCNC(=O)OC(C)(C)c1ccc(-c2ccccc2)cc1 (configuration not stated) ?
Result: inactive

Ask: What outcome does the record of this test show for COc1ccc([S+]([O-])Cc2cc(OC)ccc2OC)cc1 (configuration not stated) ?
Result: inactive

Ask: What outcome does the record of this test show for C[C@H](NC(=O)c1ccc(CNC(=O)/C=C/c2cccc(Oc3ccccc3)c2)cc1)c1ccccc1 ?
Result: inactive

Ask: What outcome does the record of this test show for O=C(Cc1ccccc1)NNc1nc(NNC(=O)c2ccncc2)nc(Nc2ccc([N+](=O)[O-])cc2)n1 ?
Result: inactive

Ask: What outcome does the record of this test show for CN(C)CCN1C(=O)c2cccc3cc([N+](=O)[O-])cc(c23)C1=O [MITONAFIDE] ?
Result: inactive

Ask: What outcome does the record of this test show for O=C1CSC(c2cccc(Cl)c2)N1c1ccc(-n2c(-c3ccccc3)nc3ccccc3c2=O)cc1 (configuration not stated) ?
Result: inactive

---

Test system: A549
Test: NCI tumour cell line growth inhibition, 48 h
Active and inactive are the calls of the source. Cut-off read from the data, not from the text of the source: active = GI50 up to about 1.1 µM and inactive = higher.
Answer with one of the outcomes given here: 1 = active, 0 = inactive

Ask: What outcome does the record of this test show for CC1=C2C(=O)C(C)(C)C=C2C(=O)[C@](C)(O)C12CC2 [DEHYDROILLUDIN M] ?
Result: 1

Ask: What outcome does the record of this test show for CC(C)N(C(C)C)P(OCCC#N)OC1CC(n2cnc3c(=O)[nH]cnc32)OC1COC(=O)NCCCCCCNC(=O)OC(C)(C)c1ccc(-c2ccccc2)cc1 (centres undefined) ?
Result: 0

Ask: What outcome does the record of this test show for SC1=NNC2(C(S)=N1)c1ccccc1-c1ccccc12 ?
Result: 0

Ask: What outcome does the record of this test show for CCOc1ccc(/C=C(\Cl)c2ccc(OC)c(OC)c2)cc1 ?
Result: 0

Ask: What outcome does the record of this test show for O=C(Nc1nnc(S)[nH]1)C(=O)C1C(=O)Nc2ccccc2[S+]1[O-] (centres undefined) ?
Result: 0

Ask: What outcome does the record of this test show for CN1CCN(C(=S)N(C(=O)c2cccs2)C2CCCCC2)CC1 ?
Result: 0

Ask: What outcome does the record of this test show for CSc1ccc2c(cc1=O)C(NC(=O)c1ccccc1)CCc1cc(O)c(O)c(O)c1-2 (centres undefined) ?
Result: 0

Ask: What outcome does the record of this test show for Cc1c(/C=N/NC(=S)Nc2ccc(Cl)cc2)c(=O)n(-c2ccccc2)n1C ?
Result: 0

Ask: What outcome does the record of this test show for CC1/C=C/[C@@]2(C)CCC(C(C)(C)O)C2C(O)C[C@](C)(O)/C=C/C1 (some centres undefined) ?
Result: 0

Ask: What outcome does the record of this test show for CCOC(=O)c1ccn2c(c1)c(C#N)c1nc3ccccc3nc12 ?
Result: 0

Ask: What outcome does the record of this test show for C(#C[C@@]12CCC[C@@H]1NCO2)c1ccc2c(c1)OCO2 ?
Result: 0

Ask: What outcome does the record of this test show for COC(=O)c1cccc(C)c1C1CN=NC12Cc1cc(C)cc(C)c1C2=O (centres undefined) ?
Result: 0

Ask: What outcome does the record of this test show for COC(=O)/C(=N\N)C(C(=O)C(=O)Nc1nnc(S)[nH]1)c1nc2ccc([N+](=O)[O-])cc2nc1O (centres undefined) ?
Result: 0

Ask: What outcome does the record of this test show for COc1ccc2cc(/C=N\NC(=O)Nc3ccc([N+](=O)[O-])cc3)ccc2c1 ?
Result: 0

Ask: What outcome does the record of this test show for COc1cc(C2c3[nH]c4ccccc4c3C[C@H]3COC(=O)N23)cc(OC)c1OC (some centres undefined) ?
Result: 1

Ask: What outcome does the record of this test show for C=CCN(C(=O)CNC(=O)C(F)(F)F)c1cc(OCc2ccccc2)c2c(c1)c(C)cn2S(=O)(=O)c1ccccc1 ?
Result: 0

Ask: What outcome does the record of this test show for CCCNC1=C(C(=O)OCC)C(=O)CO1 ?
Result: 0

Ask: What outcome does the record of this test show for Clc1ccc(CSC2=NCCN2)cc1Cl ?
Result: 0

Ask: What outcome does the record of this test show for Cc1cc2c(cc1Cl)SC(NNC(=O)c1ccccc1)=NS2(=O)=O ?
Result: 0

Ask: What outcome does the record of this test show for [O-][n+]1c2cc(CBr)c(CBr)cc2[n+]([O-])c2c(O)cccc21 ?
Result: 0

Ask: What outcome does the record of this test show for O=C1/C(=C/c2ccccc2)CCCC1CN1CCCCC1 (centres undefined) ?
Result: 0

Ask: What outcome does the record of this test show for CC(C)OP(=O)(OC(C)C)c1c(N)n[nH]c1Nc1ccccc1 ?
Result: 0

Ask: What outcome does the record of this test show for COc1c(O)c(O)cc2c1-c1ccc(OC)c(=O)cc1C(NC(C)=O)CC2 (centres undefined) ?
Result: 0

Ask: What outcome does the record of this test show for CC(C)(C)OC(=O)C1/C(=C/CO)CN1C(=O)OC(C)(C)C (centres undefined) ?
Result: 0

Ask: What outcome does the record of this test show for NN/C(=N\S(=O)(=O)c1cc2ccccc2o1)Nc1ccc(Cl)cc1 ?
Result: 0

Ask: What outcome does the record of this test show for CCCCCCCCCCCCCCCCCCOCC(O)CO (centres undefined) [BATILOL] ?
Result: 0

Ask: What outcome does the record of this test show for N#CCCN(CCC#N)c1ccc(/C=C(/NC(=O)c2cc([N+](=O)[O-])ccc2Cl)C(=O)N=[N+]=[N-])cc1 ?
Result: 0

Ask: What outcome does the record of this test show for O=c1c2cc([N+](=O)[O-])cnc2sn1-c1ccc(Oc2ccccc2)cc1 ?
Result: 0

Ask: What outcome does the record of this test show for COc1cc(-c2oc3c(OC)c(O)c(OC)c(O)c3c(=O)c2OC)ccc1O ?
Result: 0
